Listing of recorded logP by entry.
# PROCEDURE SUMMARY: from Nakagawa, S.; Okajima, N.; Kitahaba, T.; Nishimura, K.; Fujita, T.; Nakajima, M. (1982). Quantitative structure-activity studies of substituted benzylchrysanthemates. I. Correlation between …
Answer with a bare number; do not write a unit.

[[record]]
molecule = "C=CCC1=C(C)[C@H](OC(=O)C2C(C=C(C)C)C2(C)C)CC1=O (stereo partly drawn)"
quantitative_result = 4.78


Ask: Report measured logP; entry is CC(C)=C[C@@H]1[C@@H](C(=O)OCc2ccc(C#N)cc2)C1(C)C
Reply: 4.91

Ask: Report measured logP; entry is CC(C)=CC1C(C(=O)OCc2ccccc2)C1(C)C (stereo not drawn)
Reply: 5.49

Ask: Report measured logP; entry is COC(=O)C1C(C=C(Cl)Cl)C1(C)C (stereo not drawn)
Reply: 3.63

Ask: Report measured logP; entry is CC(=O)OCc1ccc(C)cc1
Reply: 2.44

Ask: Report measured logP; entry is COC(=O)C1C(C=C2CCSC2=O)C1(C)C (stereo not drawn)
Reply: 2.33

Ask: Report measured logP; entry is CC(=O)OCc1coc(Cc2ccccc2)c1
Reply: 3.24

Ask: Report measured logP; entry is CC(=O)OCc1ccc([N+](=O)[O-])cc1
Reply: 1.73

Ask: Report measured logP; entry is CC(=O)OCc1ccc(Cl)cc1
Reply: 2.59

Ask: Report measured logP; entry is COC(=O)[C@@H]1[C@@H](C=C(C)C)C1(C)C
Reply: 3.76

Ask: Report measured logP; entry is CC(C)=C[C@@H]1[C@@H](C(=O)OCc2ccccc2[N+](=O)[O-])C1(C)C
Reply: 5.2

Ask: Report measured logP; entry is CC(=O)OCN1C(=O)C2=C(CCCC2)C1=O
Reply: 1.15

Ask: Report measured logP; entry is COc1cccc(COC(C)=O)c1
Reply: 2.02
